Kindly supply the reported diameter of the inhibition zone (DIZ) values for the records listed here.
Tested on: Bacillus subtilis
Assay: Antibacterial activity against Bacillus subtilis ATCC 6633 using 100 uL of test compound after 24 hrs by agar well diffusion method
Type: functional

[
  {
    "Molecule": "O=C(Cn1cc(CC(O)c2ccc(S(=O)(=O)c3ccccc3)cc2)nn1)c1ccc(Br)cc1 (stereo unspecified)",
    "Result": "14 mm"
  }
]

Report diameter of the inhibition zone (DIZ) for every entry below.
1. CC(Cc1cn(CC(=O)c2ccc(S(=O)(=O)c3ccccc3)cc2)nn1)(OCc1cn(CC(=O)c2ccc(S(=O)(=O)c3ccccc3)cc2)nn1)c1ccc(S(=O)(=O)c2ccccc2)cc1 (stereo unspecified)
2. CC(Cc1cn(Cc2ccccc2)nn1)(OCc1cn(Cc2ccccc2)nn1)c1ccc(S(=O)(=O)c2ccccc2)cc1 (stereo unspecified)
3. O=C(Cn1cc(CC(O)c2ccc(S(=O)(=O)c3ccccc3)cc2)nn1)c1ccccc1 (stereo unspecified)
4. CC(Cc1cn(CC(=O)c2ccccc2)nn1)(OCc1cn(CC(=O)c2ccccc2)nn1)c1ccc(S(=O)(=O)c2ccccc2)cc1 (stereo unspecified)

A:
1: 14 mm; 2: 14 mm; 3: 19 mm; 4: 16 mm
